assay: soluble on expression in E. coli; label from the status in PepcDB or PDB records
Parameter Measured: soluble on expression in E. coli

Some sequences with recorded soluble on expression in E. coli:
[
  {
    "Macromolecule Sequence": "MSLTIKLITFDLDDTLWDTAPVIVSAEATLRQWLTEHAPNLGGVPVEHLWAIRERVLLAQPNLKHRISALRRQVLFHALEEAGYDHAQANQLADQSFEVFLHARHQLEIFPEVQPTLEALANHFALGVVTNGNADVRRLGLADYFKFALCAEDIGIAKPDARLFHEALQRGEATADTAVHIGDHPGDDIAGAQQAGLRAIWFNPNGKTWEAEHAPDAEIRSLNELPGLLARWHRGAEGHHHHHH",
    "soluble on expression in E. coli": "soluble"
  },
  {
    "Macromolecule Sequence": "MVDKGVKIKVDYIGKLESGDVFDTSIEEVAKEAGIYAPDREYEPLEFVVGEGQLIQGFEEAVLDMEVGDEKTVKIPAEKAYGNRNEMLIQKIPRDAFKEADFEPEEGMVILAEGIPATITEVTDNEVTLDFNHELAGKDLVFTIKIIEVVE",
    "soluble on expression in E. coli": "soluble"
  },
  {
    "Macromolecule Sequence": "MNNISIPFEKLGNAKKVGIQLPDGLKRRAIEIAQLIEDRGYDVVISGETSFGACDIDLSILEVVDVLLHFAHTPILKDERVVYVPYFIEYNPKIDLKVDERRIALIATAQYVHKLPEVAEWLRGKGYEVEIGSPRGRVVYPGQVLGCNYSVLRGSNADAVVFIGDGLFHATGAAMYTKKKVYAYNPLSGELKEVDARNFEKKRYLEVSKCVGKSKAGILVSSKPGQRRLRLAEKLKKIGRENGLFCSIIYLNNVRAEELYNLPFDFYVNTACPRIAYDDGARFEKPVISPQEFELLLGLRESIAMDEIEF",
    "soluble on expression in E. coli": "not soluble"
  },
  {
    "Macromolecule Sequence": "GHHHHHHAIAENLYFQSSRNPEVLWAQRSDKVYLTVALPDAKDISVKCEPQGLFSFSALGAQGERFEFSLELYGKIMTEYRKNVGLRNIIFSIQKEERSWWTRLLKSEEKPAPYIKVDWNKWCDEDEEVNSETASDDESAFVNQDSESSDDDGLLYLPDLEKARNK",
    "soluble on expression in E. coli": "soluble"
  },
  {
    "Macromolecule Sequence": "MTRTVSMSTAINEAMKISMRRDENVILIGEDVAGGAQVDHLQDDEAWGGVLGVTKGLVQEFGRNRILDTPISEAGYMGAAMAAAATGLRPIAELMFNDFIGSCLDQVLNQGAKFRYMFGGKAKVPVTVRTMHGAGFSAAAQHSQSLYALFTSIPGIKVVVPSTPYDAKGLLLAAIEDDDPVIFFEDKTLYNMKGEVPEGYYTIPLGKADIKREGSDVTIVAIGKQVHTALAAAEQLAKKGLEVEVIDPRSLSPLDEDTILSSVEKTNRLIVIDEANPRCSIATDIAAIVADRGFDLLDAPIKRITAPHTPVPFSPPLEKLYLPTPEKVIETVSEMIGDQSLLHV",
    "soluble on expression in E. coli": "not soluble"
  }
]

Now consider a different sequence.
*Q* # lookup: soluble on expression in E. coli of `MLLPRCCWGRWLMGRRPRCSCQAPAGFDGKDGRGSRVREMPPWRVLFLGTDHFARETLRALHAARDGKEEKLIEKLEVVTVPSLSPKGLPVKQYAIQSQLPVYEWPDVGSGEYDVGVVASFGRLLSEALILKFPYGILNVHPSCLPRWRGPAPIIHTVLHGDTVTGVTIMQIRPKRFDIGPILQQETIPVPPKSTSKELEAVLSKLGANMLISVLKNLPESLNNGRPQPAEGVTYAPKVSAGTSCVKWEEQTSEQVLRLHLAIGDIVPLQTLWMENTVKLLDLVEVNNSILADPKLTGQTVTPGFVVYHRPSQMLLVRCKDGWIGVRSVMLKKTLTATDFYNGYLHAWYQKNSHAHPSQCRFQTLRLPTKMQQKTKLLLCNSALSS`
*A* soluble
